- Test system: Venturia inaequalis
- measurement_notes: Venturia test (apple)/protective
- Format: in vivo
- test_parameters: 100 ppm active compound, protective, evaluation 10 days after inoculation
# efficacy in % per entry
Hi! Could you send only the number? It should be in %, unit omitted.

CC1CCc2c(-c3ccnc(NC(=O)C4CC4)c3)c(-c3ccc(F)cc3)nn21 (centres unmarked) [Example 78]; 100
Fc1ccc(-c2nn3c(c2-c2ccncc2)CCC3)cc1 [Example 7]; 76
CC(C)Nc1cc(-c2c(-c3ccccc3)nn3c2CCC3)ccn1 [Example 70]; 100
O=C(Nc1cc(-c2c(-c3ccsc3)nn3c2CCCC3)ccn1)C1CC1 [Example 65]; 96

Then this compound:
Entry under review: C[C@H](O)C(=O)Nc1cc(-c2c(-c3ccc(F)cc3)nn3c2CCCC3)ccn1 [Example 24] . Reported efficacy in %?
83

---

- System: Alternaria solani
- measurement_notes: Alternaria test (tomato)/protective
- Assay type: in vivo
- test_parameters: in vivo
measurement_kind: efficacy in %

O=C(Nc1cc(-c2c(-c3ccccc3)nn3c2CCCC3)ccn1)c1ccccc1; 89%
CC(C)C(=O)Nc1cc(-c2c(-c3ccc(F)cc3)nn3c2COCC3)ccn1; 90%
CC(C)C(=O)Nc1cc(-c2c(-c3ccsc3)nn3c2CCCC3)ccn1; 100%
COCC(=O)Nc1cc(-c2c(-c3ccc(F)cc3)nn3c2CCOC3)ccn1; 90%
c1ccc(-c2nn3c(c2-c2ccncc2)CCCC3)cc1; 100%

Entry under review: `c1csc(-c2nn3c(c2-c2ccncc2)CCCC3)c1` . Reported efficacy in %?
94%

Now the same for `COCC(=O)Nc1cc(-c2c(-c3ccc(F)cc3)nn3c2CCCC3)ccn1`
95%

Now the same for CC1CCc2c(-c3ccncc3)c(-c3ccc(F)cc3)nn21 (stereo not drawn)
95%

Now the same for CCC(=O)Nc1cc(-c2c(-c3ccc(F)cc3)nn3c2CCC3C)ccn1 (stereo not drawn)
100%

Now the same for `CC(C)C(=O)Nc1cc(-c2c(-c3ccc(F)cc3)nn3c2CCCC3)ccn1`
100%

Now the same for `CN(C)C=Nc1cc(-c2c(-c3ccc(F)cc3)nn3c2CCCC3)ccn1`
80%

Now the same for `CCC(=O)Nc1cc(-c2c(-c3cccs3)nn3c2CCCC3)ccn1`
95%

Now the same for `O=C(Nc1cc(-c2c(-c3ccc(F)cc3)nn3c2CCCC3)ccn1)c1ccccc1`
78%

Now the same for `CCC(=O)Nc1cc(-c2c(-c3ccc(F)cc3)nn3c2CCC3)ccn1`
100%

Now the same for `Fc1cccc(-c2nn3c(c2-c2ccnc(F)c2)CCC3)c1`
80%

Now the same for `CC(C)CC(=O)Nc1cc(-c2c(-c3ccc(F)cc3)nn3c2CCCC3)ccn1`
100%

Now the same for `O=CNc1cc(-c2c(-c3ccccc3)nn3c2CCCC3)ccn1`
95%

Now the same for `CCC(=O)Nc1cc(-c2c(-c3ccc(F)cc3)nn3c2COCC3)ccn1`
80%

Now the same for `Fc1ccc(-c2nn3c(c2-c2ccnc(F)c2)CCC3)cc1`
95%

Now the same for `CC(C)C(=O)Nc1cc(-c2c(-c3ccc(F)cc3)nn3c2CCOC3)ccn1`
90%

Now the same for `CCC(=O)Nc1cc(-c2c(-c3ccc(F)cc3)nn3c2CCOC3(C)C)ccn1`
90%

Now the same for `CC(C)(O)C(=O)Nc1cc(-c2c(-c3ccccc3)nn3c2CCCC3)ccn1`
95%

Now the same for `C[C@@H](O)C(=O)Nc1cc(-c2c(-c3ccsc3)nn3c2CCCC3)ccn1`
70%

Now the same for `Fc1ccc(-c2nn3c(c2-c2ccncc2)CCCCC3)cc1`
94%

---

- Tested on: Fusarium graminearum
- Assay type: in vivo
- test_parameters: in vivo
# efficacy in % per entry
Hi! Could you send only the number? It should be in %, unit omitted.

Entry under review: CC(=O)Nc1cc(-c2c(-c3ccsc3)nn3c2CCCC3)ccn1 [Example 58] . Reported efficacy in %?
100

Now the same for CC(C)C(=O)Nc1cc(-c2c(-c3ccccc3)nn3c2CCCC3)ccn1 [Example 29]
94

Now the same for CC(C)C(=O)Nc1cc(-c2c(-c3ccsc3)nn3c2CCCC3)ccn1 [Example 63]
83

Now the same for CC(=O)Nc1cc(-c2c(-c3ccc(F)cc3)nn3c2CCCC3)ccn1 [Example 15]
100

---

- Tested on: Pyricularia oryzae
- test_parameters: in vivo
# efficacy in % per entry
Hi! Could you send only the number? It should be in %, unit omitted.

CC(C)CC(=O)Nc1cc(-c2c(-c3ccc(F)cc3)nn3c2CCCC3)ccn1; 94
O=C(Nc1cc(-c2c(-c3ccccc3)nn3c2CCCC3)ccn1)C1CC1; 98

Then this molecule:
// fetch Pyricularia oryzae efficacy in % for `O=C(Cc1ccccc1)Nc1cc(-c2c(-c3ccc(F)cc3)nn3c2CCCC3)ccn1`
95

---

- measurement_notes: log P determination by HPLC retention times (alkan-2-one calibration)
- test_parameters: log P(HCOOH), HCOOH; preparation examples in the text
# chromatographic logP per entry
Note: the reply should be a number with no unit written.

Field: example entries. Status: answers known.
O=C(O)c1c(-c2ccccc2F)nn2c1CCC2; 1.35
[O-]c1on[n+]2c1CCCCC2; 0.6
CC1(C)OCCc2c(I)c(-c3ccc(F)cc3)nn21; 4.28

Entry under review: `Fc1ccc(-c2cc(CCOCc3ccccc3)[nH]n2)cc1` . Reported chromatographic logP?
3.09

Now the same for `Fc1ccc(-c2nn3c(c2I)CCCCC3)cc1`
4.35

Now the same for `O=C(C#CCCOCc1ccccc1)c1ccc(F)cc1`
3.89

---

# % inhibition of the fungal growth of Fusarium graminearum at 50 μM per entry
- Test system: Fusarium graminearum
- measurement_notes: microbe, parasite or virus in culture
- Format: cell-based
- test_parameters: 50 μM
Hi! Could you send only the number? It should be in %, unit omitted.

Field: example entries. Status: answers known.
CC(C)CC(=O)Nc1cc(-c2c(-c3ccccc3)nn3c2CCCC3)ccn1; 97
CN(C)C=Nc1cc(-c2c(-c3ccccc3)nn3c2CCCC3)ccn1; 89
C[C@@H](O)C(=O)Nc1cc(-c2c(-c3ccsc3)nn3c2CCCC3)ccn1; 50
CC(=O)Nc1cc(-c2c(-c3ccc(F)cc3)nn3c2CCCC3)ccn1; 88
CC(C)C(=O)Nc1cc(-c2c(-c3ccc(F)cc3)nn3c2CCCC3)ccn1; 100

Entry under review: `O=C(Nc1cc(-c2c(-c3ccccc3)nn3c2CCCC3)ccn1)c1ccccc1` . Reported % inhibition of the fungal growth of Fusarium graminearum at 50 μM?
100

Now the same for `CC(C)Nc1cc(-c2c(-c3ccc(F)cc3)nn3c2CCC3)ccn1`
19

Now the same for `O=C(Nc1cc(-c2c(-c3ccc(F)cc3)nn3c2CCCC3)ccn1)c1ccccc1`
94

Now the same for `Fc1ccc(-c2nn3c(c2-c2ccnc(F)c2)CCC3)cc1`
21

---

- Test system: Pyrenophora teres
- measurement_notes: Pyrenophora teres test (barley)/protective
- Type: in vivo
- test_parameters: in vivo
# efficacy in % per entry
Hi! Could you send only the number? It should be in %, unit omitted.

// fetch Pyrenophora teres efficacy in % for Fc1ccc(-c2nn3c(c2-c2ccncc2)CCC3)cc1 [Example 7]
80

Now the same for C[C@@H](O)C(=O)Nc1cc(-c2c(-c3ccsc3)nn3c2CCCC3)ccn1 [Example 66]
95

Now the same for CC(C)CC(=O)Nc1cc(-c2c(-c3ccc(F)cc3)nn3c2CCOC3(C)C)ccn1 [Example 105]
95

Now the same for CC(C)C(=O)Nc1cc(-c2c(-c3ccccc3)nn3c2CCCC3)ccn1 [Example 29]
100

Now the same for CCC(=O)Nc1cc(-c2c(-c3ccc(F)cc3)nn3c2CCOC3(C)C)ccn1 [Example 86]
100

Now the same for COCC(=O)Nc1cc(-c2c(-c3ccc(F)cc3)nn3c2CCOC3)ccn1 [Example 94]
95

Now the same for O=C(Nc1cc(-c2c(-c3ccccc3)nn3c2CCCC3)ccn1)C1CC1 [Example 21]
100

Now the same for c1cc(-c2c(-c3ccsc3)nn3c2CCC3)ccn1 [Example 46]
70

Now the same for C[C@H](O)C(=O)Nc1cc(-c2c(-c3ccc(F)cc3)nn3c2CCCC3)ccn1 [Example 24]
95

---

- measurement_notes: log P determination by HPLC retention times (alkan-2-one calibration)
- test_parameters: pH 7, log P(pH7), pH7; preparation examples in the text
# chromatographic logP per entry
Note: the reply should be a number with no unit written.

COc1ccc(C#Cc2ccncc2)cc1 [II-3, 4-{[4-(Methoxy)phenyl]ethynyl}pyridine]; 2.68
FC(F)(F)c1cccc(C#Cc2ccncc2)c1; 3.5

Then this compound:
Entry under review: Fc1ccc(C#Cc2ccncc2)cc1 [II-4, 4-{[4-Fluorophenyl]ethynyl}pyridine] . Reported chromatographic logP?
2.81
